- Assay Details: activity coefficient (dimensionless); of the first substance listed, at infinite dilution; xn = mol fraction of the nth substance listed
- Cond: 318.15 K; 101 kPa; Liquid; Chromatography; x1 = 0
Measure Name: activity coefficient

> print(dat)
                                   molecule   val
1  CCCC(C)=O [pentan-2-one] + CCCC[n+]1cccc(C)c1.O=S(=O)([O-])C(F)(F)F  1.35
2  C1CCOC1 [tetrahydrofuran] + CCCC[n+]1cccc(C)c1.O=S(=O)([O-])C(F)(F)F   1.2
3  CCOCC [diethyl ether] + CCCC[n+]1cccc(C)c1.O=S(=O)([O-])C(F)(F)F  4.24
4  C1CCCCC1 [cyclohexane] + CCCC[n+]1cccc(C)c1.O=S(=O)([O-])C(F)(F)F  12.4
5  O [water] + CCCC[n+]1cccc(C)c1.O=S(=O)([O-])C(F)(F)F  0.89

a: CCO [ethanol] + CCCC[n+]1cccc(C)c1.O=S(=O)([O-])C(F)(F)F
b: CCCCCCC [heptane] + CCCC[n+]1cccc(C)c1.O=S(=O)([O-])C(F)(F)F
c: CCCCCCCCCC [decane] + CCCC[n+]1cccc(C)c1.O=S(=O)([O-])C(F)(F)F
d: CCCCC [pentane] + CCCC[n+]1cccc(C)c1.O=S(=O)([O-])C(F)(F)F
Asked: Would you mind ranking these molecules by ascending activity coefficient? I'd appreciate it if you listed the labels in the requested order.
Given back: a, d, b, c
(a: 0.907, d: 17.3, b: 32.7, c: 94.9)

###

- Assay Details: activity coefficient (dimensionless); of the first substance listed, at infinite dilution; xn = mol fraction of the nth substance listed
- Cond: 338.15 K; 101 kPa; Liquid; Chromatography; x1 = 0
Measure Name: activity coefficient

Worked cases, activity coefficient given:
> print(dat)
                                   compound          measure.name    val
1  C#CCCCC [1-hexyne] + CCCC[n+]1cccc(C)c1.O=S(=O)([O-])C(F)(F)F  activity coefficient   3.11
2  C1CCOC1 [tetrahydrofuran] + CCCC[n+]1cccc(C)c1.O=S(=O)([O-])C(F)(F)F  activity coefficient   1.23
3  C=CCCCCCC [oct-1-ene] + CCCC[n+]1cccc(C)c1.O=S(=O)([O-])C(F)(F)F  activity coefficient   21.5
4  CO [methanol] + CCCC[n+]1cccc(C)c1.O=S(=O)([O-])C(F)(F)F  activity coefficient  0.592
5  Cc1ccccc1C [1,2-dimethylbenzene] + CCCC[n+]1cccc(C)c1.O=S(=O)([O-])C(F)(F)F  activity coefficient   2.25
6  C1CCCCCC1 [cycloheptane] + CCCC[n+]1cccc(C)c1.O=S(=O)([O-])C(F)(F)F  activity coefficient   13.8

1: O [water] + CCCC[n+]1cccc(C)c1.O=S(=O)([O-])C(F)(F)F
2: COC(C)(C)C [2-methoxy-2-methylpropane] + CCCC[n+]1cccc(C)c1.O=S(=O)([O-])C(F)(F)F
Asked: Could you kindly indicate whether 1 or 2 has the higher activity coefficient value? Identify your pick by its label.
Given back: 2

###

- Assay Details: activity coefficient (dimensionless); of the first substance listed, at infinite dilution; xn = mol fraction of the nth substance listed
- Cond: 338.15 K; 101 kPa; Liquid; Chromatography; x1 = 0
Measure Name: activity coefficient

> print(dat)
                                   compound          measure.name   val
1  CCCCO [butan-1-ol] + CCCC[n+]1cccc(C)c1.O=S(=O)([O-])C(F)(F)F  activity coefficient  1.26
2  Cc1ccc(C)cc1 [1,4-dimethylbenzene] + CCCC[n+]1cccc(C)c1.O=S(=O)([O-])C(F)(F)F  activity coefficient  2.57

I: CCO [ethanol] + CCCC[n+]1cccc(C)c1.O=S(=O)([O-])C(F)(F)F
II: CCCCCCCCC [nonane] + CCCC[n+]1cccc(C)c1.O=S(=O)([O-])C(F)(F)F
Asked: Larger number for activity coefficient: I , or II ? Give the label under which the chosen entry appears.
Given back: II
(II: 56.8, I: 0.827)
